- targetDesc: T1, mSNAPc#2 WT (Homo sapiens, UniProt Q5SXM2;Q92966;Q16533;O75971 1-505;1-411;1-268;1-98)
- T1 sequence 1: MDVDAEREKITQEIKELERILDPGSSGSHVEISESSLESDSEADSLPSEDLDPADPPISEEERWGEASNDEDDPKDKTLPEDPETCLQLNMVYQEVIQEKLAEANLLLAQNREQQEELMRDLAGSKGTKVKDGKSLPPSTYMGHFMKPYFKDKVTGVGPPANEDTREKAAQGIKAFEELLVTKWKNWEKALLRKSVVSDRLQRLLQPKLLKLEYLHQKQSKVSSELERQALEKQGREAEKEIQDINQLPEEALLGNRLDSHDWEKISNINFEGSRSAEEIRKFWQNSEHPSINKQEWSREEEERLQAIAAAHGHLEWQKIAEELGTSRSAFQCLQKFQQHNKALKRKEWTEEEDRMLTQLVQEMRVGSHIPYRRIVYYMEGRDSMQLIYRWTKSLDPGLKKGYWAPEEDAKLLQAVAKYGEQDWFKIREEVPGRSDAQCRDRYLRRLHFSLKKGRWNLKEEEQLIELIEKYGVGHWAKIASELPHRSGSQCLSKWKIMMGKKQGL
- T1 sequence 2: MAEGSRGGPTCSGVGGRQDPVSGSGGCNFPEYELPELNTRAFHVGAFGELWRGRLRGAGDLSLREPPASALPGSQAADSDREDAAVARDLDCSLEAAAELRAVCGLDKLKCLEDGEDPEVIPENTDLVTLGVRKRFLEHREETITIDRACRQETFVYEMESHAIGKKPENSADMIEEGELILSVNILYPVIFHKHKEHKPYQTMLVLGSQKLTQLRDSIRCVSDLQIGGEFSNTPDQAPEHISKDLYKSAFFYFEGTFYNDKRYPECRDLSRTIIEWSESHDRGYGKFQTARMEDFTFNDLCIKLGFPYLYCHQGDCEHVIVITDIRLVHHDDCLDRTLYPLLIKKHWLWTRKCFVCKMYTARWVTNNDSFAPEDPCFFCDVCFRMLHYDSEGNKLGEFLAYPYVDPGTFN
- T1 sequence 3: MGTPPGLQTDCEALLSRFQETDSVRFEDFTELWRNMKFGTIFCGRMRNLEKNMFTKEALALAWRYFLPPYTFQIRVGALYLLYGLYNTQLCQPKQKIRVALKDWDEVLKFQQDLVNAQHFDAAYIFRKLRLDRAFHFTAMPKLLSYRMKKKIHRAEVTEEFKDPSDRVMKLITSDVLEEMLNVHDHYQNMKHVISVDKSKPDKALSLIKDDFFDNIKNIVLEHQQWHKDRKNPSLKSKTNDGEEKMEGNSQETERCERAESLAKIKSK
- T1 sequence 4: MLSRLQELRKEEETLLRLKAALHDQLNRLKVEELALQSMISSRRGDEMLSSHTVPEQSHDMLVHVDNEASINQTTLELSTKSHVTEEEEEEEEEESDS
- assayRemarks: SPR; protein immobilized; EMSA: 100 mM KCl, 25 mM HEPES-K pH 7.6, 12.5 mM MgCl2, 10 uM ZnCl2, 0.1 mM EDTA, 10% glycerol, 3 mM DTT, 0.5 mM PMSF, 50 nM DNA, RT 30 min; SPR: 100 mM KCl, 12.5 mM MgCl2, 10 uM ZnCl2, 0.1 mM EDTA, 0.05% P20, 25 C
- assayContext: protein: recombinant; tags: FLAG N-term SNAP190; 6xHis N-term SNAP43; copies: 1;1;1;1
endpointLabel: Kd (nM)

* 25 bp hU6-1 PSE (SPR) (dsDNA) DNA 1: TGCTTACCGTAACTTGAAAGTATTT DNA 2: AAATACTTTCAAGTTACGGTAAGCA | 289
